Biological target: T1, recombinant human TIGIT extra cellular domain (ECD) protein (human, UniProt Q495A1 22-138)
T1 construct: Purchased protein; it begins with the signal peptide; also called h-TIGIT ECD; human TIGIT ECD
T1 sequence: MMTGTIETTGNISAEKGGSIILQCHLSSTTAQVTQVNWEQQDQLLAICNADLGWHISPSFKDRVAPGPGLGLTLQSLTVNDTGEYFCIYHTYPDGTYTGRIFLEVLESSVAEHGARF
Assay: PVR blocking ELISA (PVR binding to h-TIGIT blocked by the clone); scatter of IC50 against EC50, nM per the legend
Measure: binding result

Binder	Measure	Value reported
6D8 VHH (VHH, VHH in bacterial supernatant) VHH: QVQLVESGGGVVQPGRSLRLSCAASGPSFSSKPMGWFRQAPGKERESVAARSSDGRFTYYADSVKGRFTISRDNSKNTLYLQMNSLRAEDTAVYYCAARDSGSGRYSRAQWYDYWGQGTLVTVSS	binding result	binds
2A5 VHH (VHH, VHH in bacterial supernatant) VHH: QVQLVESGGGVVQPGRSLRLSCAASGPSFSSYPMGWFRQAPGKERESVAAISSVGRFTYYADSVKGRFTISRDNSKNTLYLQMNSLRAEDTAVYYCAARDSGSGYYSRWQWYDYWGQGTLVTVSS	binding result	binds
1C7 VHH (VHH, VHH in bacterial supernatant) VHH: QVQLVESGGGVVQPGRSLRLSCAASGPSFSSYPMGWFRQAPGKERESVAAISSRGRFTYYADSVKGRFTISRDNSKNTLYLQMNSLRAEDTAVYYCAARGSGSGYYSRAQWYDYWGQGTLVTVSS	binding result	binds
5B5 VHH (VHH, VHH in bacterial supernatant) VHH: QVQLVESGGGVVQPGRSLRLSCAASGPSFSSYPMGWFRQAPGKERESVAAISSDTRFTYYADSVKGRFTISRDNSKNTLYLQMNSLRAEDTAVYYCAARDSGSGYYSRAQWYDRWGQGTLVTVSS	binding result	binds
